The reported numbers originate from patent EP4512427A1.

Parameter: IC50. Scope: all listed entries.
- Tested on: MDA-MB-453
- Assay Remarks: In vitro cytotoxicity assay (MTT)
- Type: cell-based, human
- Details: Homo sapiens, MDA-MB-453, 144 h, 6 days incubation
Note: unit nM is implicit; provide only the numeric part.

- Compound: "Brc1cnn2c(NCc3ccc(-c4ccccn4)cc3)nc(NC3CCCNC3)nc12 (racemic)"
  Tested Target: "MDA-MB-453"
  Numeric Result: 0.64
- Compound: "NCCNc1nc(NCc2ccc(-c3ccccn3)cc2)n2ncc(Br)c2n1"
  Tested Target: "MDA-MB-453"
  Numeric Result: 0.88
- Compound: "Brc1cnn2c(NCc3ccc(-c4ccccn4)cc3)nc(N[C@@H]3CCCNC3)nc12"
  Tested Target: "MDA-MB-453"
  Numeric Result: 0.4
- Compound: "Brc1cnn2c(NCc3ccc(-c4ccccn4)cc3)nc(NC3CCNCC3)nc12"
  Tested Target: "MDA-MB-453"
  Numeric Result: 1.27
- Compound: "Brc1cnn2c(NCc3ccc(-c4ccccn4)cc3)nc(NCC3CCNCC3)nc12"
  Tested Target: "MDA-MB-453"
  Numeric Result: 12.8
- Compound: "Brc1cnn2c(NCc3ccc(-c4ccccn4)cc3)nc(NC[C@@H]3CCCN3)nc12"
  Tested Target: "MDA-MB-453"
  Numeric Result: 3.55

Let us examine a further case.
QUERY: # get_value(readout='IC50', item= "N[C@H]1CC[C@H](Nc2nc(NCc3ccc(-c4ccccn4)cc3)n3ncc(Br)c3n2)C1" )
RESULT: 0.59

###

Parameter: IC50. Scope: all listed entries.
- System: OE-19
- Assay Remarks: In vitro cytotoxicity assay (MTT)
- Format: cell-based
- Details: Homo sapiens, OE19, 144 h, 6 days incubation

# annotated cases, reported IC50 shown
- Compound: "Brc1cnn2c(NCc3ccc(-c4ccccn4)cc3)nc(NC3CCNCC3)nc12 [Compound 2388]"
  IC50: "3.77 nM"
- Compound: "CC(C)c1cnn2c(NCc3ccc(-c4ccccn4)cc3)nc(N[C@H]3CC[C@H](N)CC3)nc12 [Compound 2420]"
  IC50: "6.91 nM"
- Compound: "N[C@H]1CC[C@H](Nc2nc(NCc3ccc(-c4ccccn4)cc3)n3ncc(Br)c3n2)CC1 [Compound 2384]"
  IC50: "2.24 nM"

Let us examine a further case.
QUERY: # get_value(readout='IC50', item= CC(C)c1cnn2c(NCc3ccc(-c4ccccn4)cc3)nc(NC3CCNCC3)nc12 [Compound 2428] )
RESULT: 7.84 nM

###

Parameter: pIC50. Scope: all listed entries.
- Test system: MDA-MB-231
- Assay Remarks: In vitro cytotoxicity assay (MTT)
- Assay type: cell-based, human
- Details: 6 days incubation
Recall that pIC50 is obtained by taking minus log10 of the concentration measured in molar.

- Compound: "N#Cc1cnn2c(NCc3ccc(-c4ccccn4)cc3)nc(N[C@H]3CC[C@H](N)CC3)nc12"
  Readout Type: "pIC50"
  Numeric Result: 8.79

QUERY: Short answer please: pIC50, MDA-MB-231, entry "Brc1cnn2c(NCc3ccc(-c4ccccn4)cc3)nc(N[C@H]3CCNC3)nc12"
RESULT: 9.25

QUERY: Entry "Brc1cnn2c(NCc3ccc(-c4ccccn4)cc3)nc(N[C@@H]3CCCNC3)nc12" please
RESULT: 9.37

QUERY: Entry CC[C@H](CO)Nc1nc(NCc2ccc(-c3ccccn3)cc2)c2ncn(C(C)C)c2n1 [CR8, reference compound] please
RESULT: 7.98
